Provenance of the data: paper PMC12443483

Listed next: entries and their corresponding Polarity sensitivity.
test: Polarity sensitivity: emission across solvents with varying dielectric constants; assay type: physicochemical; conditions: λem versus solvent dielectric constant
Give the figure only, with no unit attached.

mol: Cc1c(C)n2c(/C=C/c3ccc(N(C)C)cc3)c(C)c(=O)n2c1=O
val: 32.1

mol: Cc1c(C)n2c(/C=C/c3ccc(N)cc3)c(C)c(=O)n2c1=O
val: 26.7

Read the next record carefully.
Request: Can you look up the measured Polarity sensitivity of CNc1ccc(/C=C/c2c(C)c(=O)n3c(=O)c(C)c(C)n23)cc1 for me?
Result: 30.7

###

assay: Photophysical characterization by absorption and fluorescence spectroscopy; type: physicochemical; conditions: CH3CN/PBS pH 7.4, 25 μM
Listed next: entries and their corresponding Fluorescence QY.
Please respond with the number in % and leave the unit unwritten.

molecule: Cc1c(C)n2c(/C=C/c3ccc(N)cc3)c(C)c(=O)n2c1=O [3a]
Fluorescence QY [%]: 0.7
//
molecule: Cc1c(C)n2c(/C=C/c3ccc(N(C)C)cc3)c(C)c(=O)n2c1=O [3c]
Fluorescence QY [%]: 0.5
//
molecule: Cc1c(C)n2c(/C=C/C=C/c3ccc(N(C)C)cc3)c(C)c(=O)n2c1=O [4a]
Fluorescence QY [%]: 0.6

Request: Can you look up the measured Fluorescence QY of CNc1ccc(/C=C/c2c(C)c(=O)n3c(=O)c(C)c(C)n23)cc1 [3b] for me?
Result: 0.5
